Each recorded value in this set is attributed to patent US9145354B2.

Method Summary: Replicon Assay (Example B), Alamar Blue cytotoxicity CC50
Assay type: cell-based
Details: human, lower value of the cell pair
Give measured CC50 at 72 h for each item. Keep answers brief.

Please look up its CC50 at 72 h: CC[C@@H](N[C@@H](C)CC(N)=O)c1ccc(Cl)c(C(=O)c2cccnc2)c1F [Example 93] > 3 µM

Record request: CC50 at 72 h value, item CC[C@@H](N[C@@H](C)CC(N)=O)c1ccc(Cl)c(C(=O)c2cc(C)c(N)cn2)c1F [Example 239] > 1 µM

Which CC50 at 72 h reading was recorded for the compound CC[C@@H](NCC1(C(N)=O)CC1)c1ccc(Cl)c(C(=O)c2cccnc2)c1F [Example 168] ? > 3 µM

Please state, for each entry, its recorded CC50 at 72 h.
1. C[C@@H](CC(N)=O)N[C@@H](c1ccc(Cl)c(C(=O)c2ccc(N)c(C#N)c2)c1F)C1CC1 [Example 255]
2. CC[C@@H](N[C@@H](C)CC(N)=O)c1ccc(Cl)c(C(=O)c2cccc(C#N)c2)c1F [Example 101]
3. C[C@@H](CC(N)=O)N[C@@H](c1ccc(Cl)c(C(=O)c2ccc(N)c(Cl)c2)c1F)C1CC1 [Example 261]

> 1 µM
> 3 µM
> 1 µM

// batch mode: one CC50 at 72 h value per listed entry
1. CC[C@@H](N[C@@H](C)CC(=O)NCCO)c1ccc(Cl)c(C(=O)c2ccc(N)nc2)c1F [Example 242]
2. CC[C@@H](N[C@@H](C)CC(N)=O)c1ccc(Cl)c(C(=O)c2ccc(N)c(C)c2)c1F [Example 259]
3. CC[C@@H](N[C@@H](C)CC(N)=O)c1ccc(Cl)c(C(=O)c2cc(C)on2)c1F [Example 110]

1: > 1 µM; 2: > 1 µM; 3: > 3 µM

Record CC50 at 72 h per entry; entries follow.
1. C[C@@H](CC(N)=O)N[C@H](CC1CC1)c1ccc(Cl)c(C(=O)c2ccc(N)nc2)c1F [Example 278]
2. CC[C@@H](N[C@@H](C)CC(N)=O)c1ccc(Cl)c(C(=O)c2ccc(C(=O)O)cc2)c1F [Example 144]

1: > 3 µM; 2: > 3 µM

----------
Target Entity: full length NS3/4a (Hepatitis C virus genotype 1b (isolate BK) (HCV), UniProt P26663)
Sequence (P26663 1027-1657): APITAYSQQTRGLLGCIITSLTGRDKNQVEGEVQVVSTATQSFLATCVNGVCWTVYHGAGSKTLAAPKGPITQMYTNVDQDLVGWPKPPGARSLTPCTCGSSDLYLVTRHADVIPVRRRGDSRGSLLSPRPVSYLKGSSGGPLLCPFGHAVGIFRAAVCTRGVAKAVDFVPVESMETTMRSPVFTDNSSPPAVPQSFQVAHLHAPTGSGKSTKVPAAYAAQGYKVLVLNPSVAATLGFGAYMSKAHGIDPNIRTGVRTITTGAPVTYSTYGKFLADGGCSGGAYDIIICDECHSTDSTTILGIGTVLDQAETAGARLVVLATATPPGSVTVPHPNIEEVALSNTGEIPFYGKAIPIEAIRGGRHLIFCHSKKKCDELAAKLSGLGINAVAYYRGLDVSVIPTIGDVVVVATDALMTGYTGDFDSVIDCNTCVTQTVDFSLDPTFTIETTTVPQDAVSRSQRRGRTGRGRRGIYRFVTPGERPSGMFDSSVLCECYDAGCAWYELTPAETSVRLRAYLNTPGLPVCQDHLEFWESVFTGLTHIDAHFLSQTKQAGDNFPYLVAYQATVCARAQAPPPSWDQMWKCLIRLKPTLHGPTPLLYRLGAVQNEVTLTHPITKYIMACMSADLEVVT
Method Summary: NS3 Protease Assay (Example A), FRET-based
Format: biochemical
Details: HCV NS3 protease assay, full length NS3/4a; read-out: Assay A IC50 (μM) average
The class of a record is decided solely by its measured IC50; consult bottom = under 0.3 µM, middle = from 0.3 µM up to 0.6 µM, top = 0.6 µM and over

Bin this entry: CC[C@@H](N[C@@H](C)CC(N)=O)c1ccc(Cl)c(C(=O)c2ccc(N)c(C)c2)c1F bottom

Category lookup for the compound [2H]C([2H])([2H])C([2H])([2H])[C@@H](N[C@@H](C)CC(N)=O)c1ccc(Cl)c(C(=O)c2ccc(N)c(C)c2)c1F bottom

In plain terms, what class is CC[C@@H](NCC1(C(N)=O)CC1)c1ccc(Cl)c(C(=O)c2cccnc2)c1F ? middle

Others:
Band for CC[C@@H](N)c1ccc(Cl)c(C(=O)c2ccc3c(c2)OCC(=O)N3)c1F ? middle

----------
Target Entity: full length NS3/4a (Hepatitis C virus genotype 1b (isolate BK) (HCV), UniProt P26663)
Method Summary: NS3 Protease Assay (Example A), FRET-based
Assay type: biochemical
Details: HCV NS3 protease assay, full length NS3/4a; read-out: Assay A IC50 (μM) average
Note to self: IC50 under 0.2 µM means Fulfilled, ties and anything higher get Not fulfilled.

The following compounds have reported results that may help.
IC50 under 0.2 µM? Item: CC[C@@H](N[C@@H](C)CC(N)=O)c1ccc(OC)c(C(=O)c2ccc(N)c(C)c2)c1F [Example 273] Fulfilled

For this compound, is IC50 lower than 0.2 µM? CC[C@@H](N[C@H](C)CC(N)=O)c1ccc(Cl)c(C(=O)c2ccc(N)c(Cl)c2)c1F [Example 244] Not fulfilled

Threshold test, IC50 < 0.2 µM: CC[C@@H](N[C@H](C)CC(N)=O)c1ccc(OC)c(C(=O)c2cccc(C#N)c2)c1F [Example 277] Not fulfilled

Field: below-cutoff. Rule: recorded IC50 strictly less than 0.2 µM. Subject: CC[C@@H](N[C@@H](C)CC(N)=O)c1ccc(Cl)c(C(=O)c2ccc[n+]([O-])c2)c1F [Example 116] Not fulfilled

Please indicate whether the reported IC50 of CC[C@@H](N)c1ccc(Cl)c(C(=O)c2ccc(C(=O)O)nc2)c1F [Example 19] is strictly below 0.2 µM. Not fulfilled

More entries:
# strict comparison: is reported IC50 < 0.2 µM? input = CC[C@@H](N)c1ccc(Cl)c(C(=O)c2ccc(-n3cccn3)nc2)c1F [Example 37] Not fulfilled

I wonder whether CC[C@@H](NCCC(N)=O)c1ccc(Cl)c(C(=O)c2ccccc2)c1F [Example 167] has IC50 below 0.2 µM. Can you tell? Fulfilled

----------
Target Entity: full length NS3/4a (Hepatitis C virus genotype 1b (isolate BK) (HCV))
Method Summary: NS3 Protease Assay (Example A), FRET-based
Type: biochemical
Details: HCV NS3 protease assay, full length NS3/4a; read-out: Assay A IC50 (μM) average
Measure: log10 IC50 (log10 of the value in µM)
Each number you see is log10 of IC50, and the unit inside the log is µM.

Report log10 IC50 for CC[C@@H](N[C@H](C)CO)c1ccc(Cl)c(C(=O)c2cccnc2)c1F [Example 166] tested on full length NS3/4a (Hepatitis C virus genotype 1b (isolate BK) (HCV)). 0.80

Count: 3. Required value per item: log10 IC50.
1. CC[C@@H](N[C@@H](C)CC(N)=O)c1ccc(Cl)c(C(=O)c2cc(C)on2)c1F [Example 110]
2. CC[C@@H](N[C@H](C)CC(N)=O)c1ccc(Cl)c(C(=O)c2cccc(C#N)c2)c1F [Example 102]
3. C=CC[C@@H](N[C@@H](C)CC(N)=O)c1ccc(Cl)c(C(=O)c2ccc(N)nc2)c1F [Example 256]

1: -0.77; 2: 0.08; 3: -0.33

Could you tell me log10 IC50 for each of these compounds? They are listed below.
1. C[C@@H](CC(N)=O)N[C@@H](c1ccc(Cl)c(C(=O)c2ccncc2)c1F)C1CC1 [Example 134]
2. CC[C@@H](N)c1ccc(Cl)c(C(=O)c2ccc(O)cc2)c1F (stereo in doubt) [Example 193]
3. CC[C@@H](N[C@@H](C)CC(N)=O)c1ccc(Cl)c(C(=O)c2cnc(N)cn2)c1F [Example 138]
4. CC[C@@H](N[C@@H](C)CC(N)=O)c1ccc(Cl)c(C(=O)c2ccccc2)c1F [Example 84]

-1.07
-0.51
-0.51
-1.24

----------
Method Summary: Replicon Assay (Example B), Alamar Blue cytotoxicity CC50
Format: cell-based
Details: human, lower value of the cell pair
Measure: CC50 at 72 h

Use the examples below as a reference point.
Entry under review: CC[C@@H](N[C@@H](C)CC(N)=O)c1ccc(Cl)c(C(=O)c2ccc(O)cc2)c1F [Example 230] . Reported CC50 at 72 h? > 3 µM

CC50 at 72 h for CC[C@@H](N[C@@H](C)CC(N)=O)c1ccc(Cl)c(C(=O)c2ccc(C#N)c(OC)c2)c1F [Example 235] ? > 1 µM

Name the recorded CC50 at 72 h for CC[C@@H](NCCO)c1ccc(Cl)c(C(=O)c2ccccc2)c1F [Example 176] . > 3 µM

Report CC50 at 72 h for each item below.
1. CC[C@@H](NCCC(N)=O)c1ccc(Cl)c(C(=O)c2cccnc2)c1F [Example 162]
2. CC[C@@H](N[C@@H](C)CC(N)=O)c1ccc(Cl)c(C(=O)c2ccc(N)c(Cl)c2)c1F [Example 234]
3. [2H]C([2H])([2H])C([2H])([2H])[C@@H](N[C@@H](C)CC(N)=O)c1ccc(Cl)c(C(=O)c2ccc(N)c(Cl)c2)c1F [Example 267]

> 3 µM
> 1 µM
> 3 µM

Give CC50 at 72 h for all compounds that follow.
1. CC[C@@H](N)c1ccc(Cl)c(C(=O)c2ccccc2)c1F [Example 4]
2. CC[C@@H](NCCC(N)=O)c1ccc(Cl)c(C(=O)c2ccccc2)c1F [Example 167]

1: > 10 µM; 2: > 3 µM

----------
Target Entity: full length NS3/4a (Hepatitis C virus genotype 1b (isolate BK) (HCV))
Method Summary: NS3 Protease Assay (Example A), FRET-based
Format: biochemical
Details: HCV NS3 protease assay, full length NS3/4a; read-out: Assay A IC50 (μM) average
Decision: IC50 beneath 0.8 µM gives Satisfied; IC50 meeting or exceeding 0.8 µM gives Not satisfied.

For orientation, consider the following solved cases.
Consider the molecule CC[C@@H](N)c1ccc(Cl)c(C(=O)c2ccc(F)c(F)c2)c1F . Is its IC50 strictly less than 0.8 µM? Not satisfied

Is it true that IC50 reported for CC[C@H](NC(C)(C)CC(N)=O)c1ccc(Cl)c(C(=O)c2ccc(N)nc2)c1F is less than 0.8 µM? Satisfied

IC50 under 0.8 µM? Item: N[C@@H](c1ccc(Cl)c(C(=O)c2cccnc2)c1F)C1CC1 Not satisfied

IC50 under 0.8 µM? Item: COc1ccc([C@H](N)C2CC2)c(F)c1C(=O)c1ccc(F)cc1 Not satisfied

Attention now turns to another entry.
Decide: IC50 of CC[C@@H](N[C@@H](C)CC(N)=O)c1ccc(Cl)c(C(=O)c2ccc(=O)[nH]c2)c1F strictly below 0.8 µM? Satisfied
